- PROTOCOL DESCRIPTION: inhibitors of TNFa-induced NFkB p65 translocation, primary screen, imaging, HUVEC, MLSMR starter and 10KST1 sets (AID 438);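 note: compound added about 3h40 before a 20 min TNFalpha stimulation; signal is the nuclear over cytoplasmic p65 intensity ratio per well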
- MEASUREMENT CONTEXT: HUVEC TNFa-induced p65 nuclear translocation; at 2 µM, stronger effect = higher value, 0% TNFa-plus-vehicle, 100% no-TNFa wells
Calls of active or inactive are those of the source.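 Rule for the calls: active = inhibition above 20% together with a positive visual image hit; inconclusive = visual image hit but inhibition not above 20%; inactive = no visual image hit.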
READOUT KIND: inhibition

Req: Suppose we examine the compound `CCOC(=O)C1CCN(S(=O)(=O)c2cccc(-c3csc(C)n3)c2)CC1` ; what inhibition value has been reported?
Resp: 4.4% (inactive)

Req: Moving on to `Cc1c(NC(=O)C2(c3ccccc3)CCOCC2)c(=O)n(-c2ccccc2)n1C`
Resp: 11.5% (inactive)

Req: Moving on to `CCc1cc2c(CN3CCN(CCO)CC3)cc(=O)oc2cc1O`
Resp: 1.3% (inactive)

Req: Moving on to `FC(F)(F)c1cccc(N2CCN(c3nnnn3-c3ccccc3)CC2)c1`
Resp: -3.8% (inactive)

Req: Moving on to CCOC(=O)C1CCCN(CC(=O)NC2CC2)C1 (stereo not drawn)
Resp: 1.1% (inactive)

Req: Moving on to `COCCN(CC(=O)NCc1ccccc1)C(=O)CCC(=O)Nc1ccccn1`
Resp: -4.4% (inactive)

Req: Moving on to `Cc1nc2ncnn2c(C)c1CCC(=O)NCCCN1CCN(c2cccc(Cl)c2)CC1`
Resp: -2% (inactive)

Req: Moving on to CCOc1cc(-c2nc3ccccn3c2NCC2CCCO2)ccc1O (stereo not drawn)
Resp: -0.9% (inactive)

Req: Moving on to `Cc1onc(-c2c(Cl)cccc2Cl)c1C(=O)N1CCc2ccccc21`
Resp: -5.8% (inactive)

Req: Moving on to `COC(=O)CS(=O)(=O)c1nnc([C@H](Cc2ccccc2)NC(=O)OC(C)(C)C)o1`
Resp: -8% (inactive)

Req: Moving on to CCCN1C2CCCC1CC(NC(=O)c1ccccc1F)C2 (stereo not drawn)
Resp: 6% (inactive)

Req: Moving on to CC1CN(C(=O)CSc2nnc(-c3ccc(Cl)cc3)n2C)CC(C)O1 (stereo not drawn)
Resp: 1.1% (inactive)

Req: Moving on to `c1ccc(OCc2nc3ccccc3[nH]2)cc1`
Resp: -6.5% (inactive)

Req: Moving on to `Nc1nnn(Cc2ccccc2)n1`
Resp: 8.7% (inactive)

Req: Moving on to Cc1ccnc(NC(=O)C2CCC(CNc3c(N4CCCC4)c(=O)c3=O)CC2)c1 (stereo not drawn)
Resp: 4.4% (inactive)

Req: Moving on to `COc1cc2c(C)nc(C)c(C#N)c2cc1OC`
Resp: -23.3% (inactive)

Req: Moving on to `Cn1c(SCC(=O)N2CCN(c3cccc(Cl)c3)CC2)nnc1-c1ccncc1`
Resp: -5.1% (inactive)

Req: Moving on to CCC(Sc1nc2sc(C(=O)OC)c(C)c2c(=O)n1N)C(=O)NCC1CCCO1 (stereo not drawn)
Resp: 7.5% (inactive)

Req: Moving on to `Cc1cc(C(=O)NCCN2CCN(c3cccc(Cl)c3)CC2)n(-c2ccccc2)n1`
Resp: 5.5% (inactive)

Req: Moving on to `COc1ccc(-c2ccc(-c3noc(-c4cccs4)n3)c(OC)n2)cc1`
Resp: 6.8% (inactive)

Req: Moving on to `COc1cc(C)c(-c2cc(C(=O)O)c(C)o2)cc1C(C)C`
Resp: -7.7% (inactive)

Req: Moving on to Cc1cccc(C2c3c(n(C)c(=O)n(C)c3=O)N=C3c4ccccc4C(=O)C32)c1 (stereo not drawn)
Resp: -5.6% (inactive)

Req: Moving on to `CCCC(CCC)C(=O)NCCN1CCOCC1`
Resp: -2% (inactive)

---

- SYSTEM UNDER TEST: Voltage-gated potassium channel subunit beta-2 (Rattus norvegicus)
- PROTOCOL DESCRIPTION: enhancers of rat Kvbeta2 NADPH turnover – biochemical, NADPH fluorescence, primary screen (AID 623);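 note: fluorescence intensity change per second fitted from 20 to 320 s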
- MEASUREMENT CONTEXT: Recombinant KvBeta, NADPH fluorescence decrease slope, 10 min; at 10 µM; stronger effect = lower value
READOUT KIND: NADPH fluorescence slope
Please reply with the value in numeric form only.

Req: Suppose we examine the compound `COc1ccc(-c2cc(O)cc(O)c2)cc1` ; what NADPH fluorescence slope value has been reported?
Resp: -7.1e-05

Req: Moving on to `CN(C)c1ccc(/C=C/c2ccncc2)cc1`
Resp: 1.7e-05

Req: Moving on to `CCc1nnc(NC(=O)c2ccc(COc3ccccc3)o2)s1`
Resp: -2.5e-05

Req: Moving on to `CCOCCc1nnc(NC(=O)c2ccc(OC)c(OC)c2)s1`
Resp: -4.8e-05

Req: Moving on to `CC(=O)N1CCN(S(=O)(=O)c2cccc(C(=O)Nc3ccc4c(c3)CCC4)c2)CC1`
Resp: -4e-05

Req: Moving on to `CCOc1ccc(-c2cc(CCCC(=O)N3CCN(c4ccc(OC)cc4)CC3)no2)cc1`
Resp: 2.2e-05

Req: Moving on to `CC(=O)c1c(C)oc2ccc(NS(=O)(=O)c3ccc(O)c(C(=O)O)c3)cc12`
Resp: -2.5e-05

Req: Moving on to COc1cccc(C(=O)N2CCCC(c3nc(-c4cccs4)no3)C2)c1 (stereo not drawn)
Resp: -3.3e-05

Req: Moving on to `Cc1ccc(N2CCN(CCc3nc4cc(NS(C)(=O)=O)ccc4n3C)CC2)cc1`
Resp: -3.7e-05

Req: Moving on to S=c1[nH]nc(-c2ccccc2)n1C1C=CCCC1 (stereo not drawn)
Resp: -1.5e-05

Req: Moving on to CCCC(c1nnnn1Cc1ccc(OC)cc1)N1CCN(c2ccccc2OC)CC1 (stereo not drawn)
Resp: -0.000141

Req: Moving on to `COc1ccccc1NC(=O)CSc1nnc(CC(=O)Nc2ccccc2)n1C`
Resp: 3.5e-06

Req: Moving on to `CCOC(=O)N1CCC(NC(=O)CSCc2nc(-c3cccc(OC)c3)oc2C)CC1`
Resp: -5.4e-05

Req: Moving on to CC(C)(C)C1CCc2[nH]nc(C(=O)O)c2C1 (stereo not drawn)
Resp: 1.9e-05

Req: Moving on to COc1ccc(C2c3c(oc4ccccc4c3=O)C(=O)N2c2ccc(C)cn2)cc1OC (stereo not drawn)
Resp: 6.8e-06

Req: Moving on to `CCOCCCn1c(=NC(C)=O)c(C(=O)OCC)cc2c(=O)n3ccccc3nc21`
Resp: -3.8e-05

Req: Moving on to `COc1cccc(NC(=O)CSc2nnc(-c3cc(-c4ccccn4)nc4ccccc34)o2)c1`
Resp: -2e-06

Req: Moving on to O=C1NC2(Nc3ccccc31)C(=O)Nc1ccccc12 (stereo not drawn)
Resp: -4.5e-06

Req: Moving on to `Cc1ccc(-n2c(Cn3cnc4ccccc43)nnc2SCC(=O)O)cc1`
Resp: 1.2e-06

Req: Moving on to `N#CCCN(C(=O)Nc1ccc(Cl)cc1)c1ccccc1`
Resp: 2.2e-05

Req: Moving on to `CCCS(=O)(=O)N1CCN(C(=O)c2cccnc2)CC1`
Resp: -6.9e-05

Req: Moving on to CC1CCC(C(=O)NC(C(=O)NCCN2CCC(C)CC2)C(C)C)CC1 (stereo not drawn)
Resp: 8.5e-05

Req: Moving on to `Cn1nnnc1SCC(=O)NC1CCCCC1`
Resp: 4.4e-07

---

Record form. Attribute: nuclei count. Fill in for each entry.
- PROTOCOL DESCRIPTION: endothelial E-selectin expression blockers – imaging, HUVEC, immunofluorescence, MLSMR starter and 10KST1 sets, primary screen (AID 487);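 note: 100% = median nuclei count of all wells on the same plate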
- MEASUREMENT CONTEXT: HUVEC TNFalpha-induced E-selectin immunofluorescence imaging, at 2 µM; measured here: cell number, toxicity
Quick note: give the figure in %, leave out the unit.

Req: Suppose we examine the molecule `COCCn1c(-c2ccco2)nc2nc3ccccc3nc21` ; what nuclei count value has been reported?
Resp: 98.9

Req: Moving on to `COc1ccc(CNCC(=O)Nc2cc(C)nn2-c2nc(C)cc(C)n2)cc1OC`
Resp: 152

Req: Moving on to `O=C(CSc1nnc(CNC(=O)c2cccs2)o1)NC1CCCC1`
Resp: 123

Req: Moving on to `O=C(Nc1cccnc1)c1noc2c1CCCCC2`
Resp: 113

Req: Moving on to `CCOc1ccc(-c2nnn(CC(=O)N3CCN(c4ccc(F)cc4)CC3)n2)cc1OCC`
Resp: 101

Req: Moving on to `O=C(CCc1nc2ccccc2s1)OCC(=O)N1CCN(C(=O)c2ccco2)CC1`
Resp: 128

Req: Moving on to `CC1CCN(Cc2nc3c(c(=O)n(C)c(=O)n3C)n2Cc2cccc3ccccc23)CC1`
Resp: 131

Req: Moving on to `CCOC(=O)c1c(NC(=O)c2ccn(CC)n2)sc2c1CCCC2`
Resp: 114

Req: Moving on to `COc1ccc(N2CCN(c3ccc(N)cc3C#N)CC2)cc1`
Resp: 104

Req: Moving on to `O=C(OCC(=O)c1ccccc1Br)c1ccccn1`
Resp: 95.3

Req: Moving on to Cc1ccc(NC(=O)C2CCCN(S(=O)(=O)c3cnc[nH]3)C2)cc1C (stereo not drawn)
Resp: 134

Req: Moving on to `COc1cccc(N(C(C)=O)c2nc(C)cc(C)c2C#N)c1`
Resp: 102

Req: Moving on to `CC(=O)N1CCN(C(C)=O)C1c1ccccc1`
Resp: 133

Req: Moving on to `COCCCNC(=O)CCn1c(=O)c2ccccc2n(CC(=O)Nc2ccc(C)cc2C)c1=O`
Resp: 111

Req: Moving on to `Cc1cc(Oc2ccc(Cl)cc2)nc(-c2ccccc2O)n1`
Resp: 101

Req: Moving on to CCN1CCCC1CNC(=O)c1cc2c(=O)n(C)c3ccccc3c2n1C (stereo not drawn)
Resp: 114

Req: Moving on to `CCCCNC(=O)Cn1c(=O)n(C)c2ccccc21`
Resp: 103

Req: Moving on to `Cc1nc2scc(-c3cccs3)c2c(=O)n1-n1cccc1`
Resp: 140

Req: Moving on to O=C(c1ccc(Cl)cc1)N1CCCCC(Sc2nnc(-c3ccc4c(c3)OCO4)o2)C1=O (stereo not drawn)
Resp: 145

Req: Moving on to CCC(C)(C)NC(=O)C(c1ccco1)N(C(=O)Cn1nnc2ccccc21)c1ccc2c(c1)OCO2 (stereo not drawn)
Resp: 102

Req: Moving on to `O=C(CN1CCN(Cc2ccc(F)cc2Cl)C1=O)NCCCN1CCOCC1`
Resp: 99.9

Req: Moving on to CCCNC(=O)NC(C(=O)OC)C12CC3CC(CC(C3)C1)C2 (stereo not drawn)
Resp: 123

Req: Moving on to `Cn1cc(CN2CCc3ccccc3C2)c2ccccc21`
Resp: 110
